B1: POU domain, class 3, transcription factor 3, residues 408 to 463; numbered along this chain, P20264 (parent)
chain: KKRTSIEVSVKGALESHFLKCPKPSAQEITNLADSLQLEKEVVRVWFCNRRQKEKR

# Variants of: B1
# experimentSummary: abundance fitness (aPCA) (normalised: wild type 0, dead -1); higher = more abundant; growth selection in yeast, the domain comes from the species named
# assaySetup: Homo sapiens
Exercise: state measured abundance fitness for each of the variants provided.
Numbers only.

K23H: -0.127
S16D: 0.026
K2P: -0.305
Q37P: -0.671
K53P: -0.6

Hi! Can you tell me abundance fitness for each of these variants?
1. E41Y
2. G12I
3. P24G

A)
1: -0.625; 2: 0.051; 3: -1.05

Q) // lookup abundance fitness for L14E
A) -1.11
